Target: NLRP3 inflammasome (Homo sapiens, UniProt Q96P20)
Sequence (Q96P20 whole entry): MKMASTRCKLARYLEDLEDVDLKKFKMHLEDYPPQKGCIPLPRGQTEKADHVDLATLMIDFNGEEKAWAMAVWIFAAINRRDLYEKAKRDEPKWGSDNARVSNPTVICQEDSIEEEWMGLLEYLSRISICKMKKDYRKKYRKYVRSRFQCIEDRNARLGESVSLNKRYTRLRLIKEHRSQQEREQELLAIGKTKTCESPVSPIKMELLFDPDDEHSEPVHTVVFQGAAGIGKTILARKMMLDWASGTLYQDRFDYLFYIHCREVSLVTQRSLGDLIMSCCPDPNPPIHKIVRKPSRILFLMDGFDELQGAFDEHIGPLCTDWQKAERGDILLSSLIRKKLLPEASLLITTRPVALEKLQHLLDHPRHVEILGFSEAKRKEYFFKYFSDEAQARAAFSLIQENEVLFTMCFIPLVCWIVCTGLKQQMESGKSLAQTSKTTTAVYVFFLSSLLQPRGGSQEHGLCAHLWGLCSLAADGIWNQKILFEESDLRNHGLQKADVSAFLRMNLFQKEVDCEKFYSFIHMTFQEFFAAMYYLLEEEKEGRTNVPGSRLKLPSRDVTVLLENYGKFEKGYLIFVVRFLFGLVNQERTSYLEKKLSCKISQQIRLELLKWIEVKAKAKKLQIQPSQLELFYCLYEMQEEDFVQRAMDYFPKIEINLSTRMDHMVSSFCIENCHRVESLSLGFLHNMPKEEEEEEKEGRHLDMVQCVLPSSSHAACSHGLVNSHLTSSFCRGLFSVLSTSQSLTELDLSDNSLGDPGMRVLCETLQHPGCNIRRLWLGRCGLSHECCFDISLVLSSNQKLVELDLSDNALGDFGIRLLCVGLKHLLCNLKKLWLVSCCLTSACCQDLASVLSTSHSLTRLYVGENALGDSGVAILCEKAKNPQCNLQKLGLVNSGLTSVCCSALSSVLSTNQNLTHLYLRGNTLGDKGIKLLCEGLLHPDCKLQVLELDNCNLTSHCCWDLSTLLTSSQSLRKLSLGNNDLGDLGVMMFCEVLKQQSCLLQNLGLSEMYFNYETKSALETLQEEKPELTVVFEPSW
Test: NLRP3 inflammasome activation in THP1 macrophages, IL-1β AlphaLISA
Conditions: IL-1β Activity (nM), THP1 macrophages, PMA, LPS priming, nigericin 6.7 uM activation
measurement_label: IC50

Consider the worked cases shown below.
> print(dat)
                                   compound                                       tgt   obs.value
1    Cc1cc(N[C@@H]2CCCN(C)C2)nnc1-c1ccccc1O  NLRP3 inflammasome (Homo sapiens, UniProt Q96P20)  1 to 10 nM
2  Cc1cc(N[C@@H]2CCCN(C)C2)nnc1-c1ccc(F)c(C)c1O [compound 38]  NLRP3 inflammasome (Homo sapiens, UniProt Q96P20)  1 to 10 nM
3  Cc1cc(-c2ccc(F)c(C)c2O)nnc1N[C@@H]1CCCN(C)C1  NLRP3 inflammasome (Homo sapiens, UniProt Q96P20)  1 to 10 nM
4  Cc1cc(-c2nnc(N[C@@H]3CCCN(C)C3)cc2C)c(O)cc1C(F)(F)F  NLRP3 inflammasome (Homo sapiens, UniProt Q96P20)  1 to 10 nM
5  Cc1cc(N[C@@H]2CCCN(CCF)C2)nnc1-c1ccc(F)cc1O  NLRP3 inflammasome (Homo sapiens, UniProt Q96P20)  1 to 10 nM
6  CN1CCC[C@@H](N(C)c2ccc(-c3ccccc3O)nn2)C1  NLRP3 inflammasome (Homo sapiens, UniProt Q96P20)   > 1000 nM

Now turn to the next compound.
**Q:** Bench note: what IC50 did CCN1CCC[C@@H](Nc2ccc(-c3c(C)cc(F)cc3O)nn2)C1 show?
**A:** < 1 nM

----------
The reader will find reported pIC50 values listed item by item below.
System: IL-6
Test: IL-6 AlphaLISA in LPS-primed THP1 macrophages
Conditions: Homo sapiens, THP-1, read-out: IL-6 Activity, LPS-primed THP1 macrophages; Table 11 comparison
pIC50: −log10 of the molar value.

Consider the worked cases shown below.
> print(dat)
                                   compound     obs.value
1  Cc1ccc(-c2nnc(N[C@@H]3CCCN(C)C3)cc2C)c(O)c1 [C, reference compound]        < 5.00
2  Cc1cccc(O)c1-c1ccc(N(C)[C@@H]2CCCN(C)C2)nn1 [compound 21]  5.00 to 5.30
3  Cc1cc(N[C@@H]2CCCN(C)C2)nnc1-c1ccc(C2CC2)cc1O [compound 3]  5.00 to 5.30
4  Cc1cc(N[C@@H]2CCCN(C)C2)nnc1-c1ccc(OC(F)(F)F)cc1O [B, reference compound]        < 5.00
5  Cc1cc(N[C@@H]2CCCN(C)C2)nnc1-c1ccc(C#N)cc1O [compound 51]  5.00 to 5.30
6  Cc1cc(F)cc(O)c1-c1ccc(N(C)[C@@H]2CCCN(C)C2)nn1 [compound 22]        < 5.00

**Q:** Bench note: what pIC50 did Cc1cc(N[C@@H]2CCCN(C)C2)nnc1-c1ccc(C(F)(F)F)cc1O [A, reference compound] show?
**A:** < 5.00

**Q:** Bench note: what pIC50 did Cc1cc(N[C@@H]2CCCN(C)C2)nnc1-c1ccc(Cl)cc1O [D, reference compound] show?
**A:** < 5.00

**Q:** Bench note: what pIC50 did Cc1cc(N[C@@H]2CCCN(C)C2)nnc1-c1ccccc1O [compound 2] show?
**A:** 5.00 to 5.30

----------
System: IL-6
Assay: IL-6 AlphaLISA in LPS-primed THP1 macrophages
Conditions: Homo sapiens, THP-1, read-out: IL-6 Activity (μM)
measurement_label: IC50

Consider the worked cases shown below.
> print(dat)
                           molecular.string  measurement.label   obs.value
1  Cc1cc(O[C@@H]2CCCN(C)C2)nnc1-c1ccc(C(F)(F)F)cc1O               IC50     > 10 µM
2      Cc1cc(NC[C@@H]2CCCN2C)nnc1-c1ccccc1O               IC50     > 10 µM
3  Cc1cc(N[C@@H]2CCCN(C)C2)nnc1-c1ncc(F)cc1O               IC50  5 to 10 µM
4  Cc1cc(N2CCC[C@@H](N(C)C)C2)nnc1-c1ccc(C#N)cc1O               IC50     > 10 µM

Now turn to the next molecule.
**Q:** Report IC50 for COC(C)(C)CNc1cc(C)c(-c2ccccc2O)nn1 tested on IL-6.
**A:** > 10 µM

----------
The reader will find reported IC50 values listed item by item below.
Biological target: NLRP3 inflammasome (Homo sapiens, UniProt Q96P20)
Assay: NLRP3 inflammasome activation in THP1 macrophages, IL-1β AlphaLISA

> print(dat)
                           molecular.string       obs.value
1       Cc1cc(NC[C@@H]2CCCO2)nnc1-c1ccccc1O  500 to 1000 nM
2  Cc1cc(C[C@@H]2CCCN(C)C2)nnc1-c1ccc(F)cc1O    10 to 100 nM
3  Cc1cc(C[C@@H]2CCCN(C)C2)nnc1-c1ccc(C(F)(F)F)cc1O  500 to 1000 nM

Now turn to the next compound.
**Q:** Bench note: what IC50 did Cc1cc(O[C@@H]2CCCN(C)C2)nnc1-c1ccccc1O show?
**A:** 10 to 100 nM

----------
Target: NLRP3 inflammasome (Homo sapiens, UniProt Q96P20)
Assay: NLRP3 inflammasome activation in THP1 macrophages, IL-1β AlphaLISA
The reader will find reported IC50 values listed item by item below.

Consider the worked cases shown below.
> print(dat)
                           molecular.string         obs.value
1  Cc1cc(O[C@@H]2CCCN(C)C2)nnc1-c1ccc(F)cc1O    0.01 to 0.1 µM
2  Cc1cc(C[C@H]2CCCN(C)C2)nnc1-c1ccc(C(F)(F)F)cc1O  0.001 to 0.01 µM
3    COC(C)(C)C(=O)Nc1cc(C)c(-c2ccccc2O)nn1            > 1 µM
4  Cc1cc(NC[C@H]2CCC(F)(F)C2)nnc1-c1ccccc1O            > 1 µM
5    Cc1cc(C[C@@H]2CCCN(C)C2)nnc1-c1ccccc1O    0.01 to 0.1 µM
6       Cc1cc(NCC23CC(CO2)C3)nnc1-c1ccccc1O            > 1 µM
7  Cc1cc(-c2ccc(C#N)cc2O)nnc1O[C@@H]1CCCN(C)C1            > 1 µM
8  Cc1cc(N[C@@H]2CCCN(C)C2)nnc1-c1ncc(F)cc1O     0.1 to 0.5 µM
9  Cc1cc(-c2ccc(C(F)(F)F)cc2O)nnc1O[C@@H]1CCCN(C)C1     0.1 to 0.5 µM

**Q:** Bench note: what IC50 did Cc1cc(N2CCC[C@@H](N(C)C)C2)nnc1-c1ccccc1O show?
**A:** 0.1 to 0.5 µM

----------
The reader will find reported IC50 values listed item by item below.
Biological target: NLRP3 inflammasome (Homo sapiens, UniProt Q96P20)
Test: NLRP3 inflammasome activation in THP1 macrophages, IL-1β AlphaLISA
Details: IL-1β Activity (nM), THP1 macrophages, PMA, LPS priming, nigericin 6.7 uM activation

> print(dat)
                           molecular.string     obs.value
1  Cc1cc(N[C@@H]2CCCN(C)C2)nnc1-c1ccc(F)cc1O    1 to 10 nM
2  CCc1ccc(-c2ccc(N(C)[C@@H]3CCCN(C)C3)nn2)c(O)c1  10 to 100 nM
3  Cc1cc(N[C@@H]2CCCN(C)C2)nnc1-c1c(C)cccc1O    1 to 10 nM
4  Cc1cc(-c2c(C)cc(F)cc2O)nnc1N[C@@H]1CCCN(C)C1    1 to 10 nM
5  Cc1cc(N[C@H]2CN(C)CC[C@@H]2F)nnc1-c1ccccc1O  10 to 100 nM
6  Cc1cc(-c2ccc(F)cc2O)nnc1N[C@@H]1CCCN(C)C1  10 to 100 nM
7  Cc1c(F)ccc(-c2ccc(N(C)[C@@H]3CCCN(C)C3)nn2)c1O  10 to 100 nM
8  Cc1cc(N[C@@H]2CCCN(C(C)C)C2)nnc1-c1ccccc1O        < 1 nM

Now turn to the next compound.
**Q:** Bench note: what IC50 did Cc1cc(N[C@H]2CN(C)CC[C@H]2F)nnc1-c1ccc(F)cc1O show?
**A:** 10 to 100 nM

----------
Molecular target: NLRP3 inflammasome (Homo sapiens, UniProt Q96P20)
Assay: NLRP3 inflammasome activation in THP1 macrophages, IL-1β AlphaLISA
Details: IL-1β Activity (nM), THP1 macrophages, PMA, LPS priming, nigericin 6.7 uM activation
The reader will find reported IC50 values listed item by item below.

**Q:** Bench note: what IC50 did Cc1cc(N[C@@H]2CCCN(C)C2)nnc1-c1cccc(C)c1O show?
**A:** < 1 nM

**Q:** Bench note: what IC50 did Cc1cccc(-c2ccc(N[C@@H]3CCCN(C)C3)nn2)c1O show?
**A:** 1 to 10 nM
